- Test system: M19-MEL
- ASSAY: NCI tumour cell line growth inhibition, 48 h
Calls of active or inactive are those of the source. Cut-off read from the data, not from the text of the source: active = GI50 up to about 1.1 µM and inactive = higher.
Classes used: active, inactive

MOLECULE: Cc1cc(Br)ccc1/N=N/C1C(=O)ON=C1c1ccccc1 (stereo not given)
QUALITATIVE LABEL: inactive
//
MOLECULE: C=C1C(=O)OC2C(C)C3C=CC(=O)[C@@]3(C)C(OC(=O)/C(C)=C/C)C1[C@@H]2OC(C)=O (stereo not given in full)
QUALITATIVE LABEL: active
//
MOLECULE: CCOC(=O)C(C)(C)Oc1ccc2c(-c3ccccc3)cc(=O)oc2c1
QUALITATIVE LABEL: inactive
//
MOLECULE: CCCCCCCCCC(=O)N[C@H]1CCc2cc(OC)c(OC)c(OC)c2-c2ccc(SC)c(=O)cc21
QUALITATIVE LABEL: active
//
MOLECULE: NC(CCSCCF)C(=O)O (stereo not given)
QUALITATIVE LABEL: inactive
//
MOLECULE: CN1CCN(CCn2c3c4ccccc4ccc3c3oc(=O)c4ccccc4c32)CC1
QUALITATIVE LABEL: inactive
//
MOLECULE: CCOC(=O)C(C)(C)Oc1ccc2c(-c3ccc(Cl)cc3)c(-c3ccc(Cl)cc3)c(=O)oc2c1
QUALITATIVE LABEL: inactive
//
MOLECULE: COc1ccc(/C=C/C(C(=O)O)C(=O)O)cc1
QUALITATIVE LABEL: inactive
//
MOLECULE: CCCCCC(=O)N[C@H]1CCc2cc(O)c(O)c(O)c2-c2ccc(SC)c(=O)cc21
QUALITATIVE LABEL: inactive
//
MOLECULE: Nc1nc(O)c2c(ncn2CC(O)CO)n1 (stereo not given)
QUALITATIVE LABEL: inactive
//
MOLECULE: C=C1CC(CCCl)(c2ccccc2)OC1=O (stereo not given)
QUALITATIVE LABEL: inactive
//
MOLECULE: N#CC(C#N)=C1NC(=O)CC(=O)N1
QUALITATIVE LABEL: inactive
//
MOLECULE: COc1nc(OC)nc(Sc2ccc(Sc3ccc(Sc4nc(OC)nc(OC)n4)cc3)cc2)n1
QUALITATIVE LABEL: inactive
//
MOLECULE: O=C(Nc1cccc(O)c1)C(=O)C(C(=O)c1ccc(Cl)c(Cl)c1)C1OC(=O)c2ccccc21 (stereo not given)
QUALITATIVE LABEL: inactive
//
MOLECULE: C=CC(Br)(CBr)CCC(Br)C(C)(C)Br (stereo not given)
QUALITATIVE LABEL: inactive
